B1: SPOPL (parent)
chain: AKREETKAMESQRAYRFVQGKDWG

# Variants of: B1
# measurement_notes: protein stability index of a GFP-peptide fusion (GPS, HEK-293T) (PSI 1-6); higher = more stable;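 further: lentivirally expressed fusions sorted by FACS into six bins by GFP to DsRed ratio, PSI derived from sequencing read proportions per bin multiplied by bin number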
# study_conditions: c terminus: a fixed tail appended
Outcome label depends on protein stability index relative to 3: at/above gives criterion met, below gives criterion not met.

>>> class_name("Y15G")
"criterion met"
>>> class_name("K21W")
"criterion met"
>>> class_name("V18W")
"criterion not met"
>>> class_name("K7C")
"criterion not met"
>>> class_name("S11V")
"criterion not met"
>>> class_name("A14Q")
"criterion met"
>>> class_name("Q19N")
"criterion not met"
>>> class_name("T6W")
"criterion not met"

Is protein stability index for E5M at or above 3?
criterion not met

Is protein stability index for V18E at or above 3?
criterion met
